OX2R Kb/OX1R Kb overview
TARGET: human Orexin 1 receptor (Homo sapiens)
Construct: stably expressing the full-length human Orexin 1 receptor and the aequorin photoprotein; expressed in transfected cells; host or cells: CHO-K1 (CHO-K1/hOx1), co-expressing aequorin
TEST DESCRIPTION: Assay A: OX1R IP1 (in vitro OX1R potency)
Format: cell-based
From the text: Activation of the orexin receptors expressed in cell lines results in an increase in intracellular IP3 concentration. IP1, a downstream metabolite of IP3, accumulates in cells following receptor activation and is stable in the presence of LiCl. Using Homogeneous Time-Resolved Fluorescence technology with Lumi4-Tb cryptate (commercially available from Cisbio Bioassay.) and a suitable fluorescence plate reader. […]
Enter a number only.

- SMILES ENTRY: "CCN(C(=O)c1cnc(C)nc1-c1ccccc1)[C@@H](C)CNc1ncc(C(F)(F)F)cn1"
  OX2R Kb/OX1R Kb: 2500
- SMILES ENTRY: "CCN(C(=O)c1cccc(F)c1-n1nccn1)[C@@H](C)CNc1ncc(C(F)(F)F)cn1"
  OX2R Kb/OX1R Kb: 352
- SMILES ENTRY: "CCN(C(=O)c1ccccc1-n1nccn1)[C@@H](C)CNc1ncc(C(F)(F)F)cn1"
  OX2R Kb/OX1R Kb: 404

Let us examine a further case.
Q. Consider the compound CCN(C(=O)c1nc(C)ccc1-n1nccn1)[C@@H](C)CNc1ncc(C(F)(F)F)cn1 and give its measured OX2R Kb/OX1R Kb.
A. 310

----------
Quick reference: Kb of the listed items.
TARGET: human orexin 2 receptor (Homo sapiens, UniProt O43614)
Construct: stably expressing the full-length human orexin 2 receptor and the aequorin photoprotein; expressed in transfected cells; host or cells: CHO-K1 (CHO-K1/hOx2), co-expressing aequorin
Sequence (O43614 1-444): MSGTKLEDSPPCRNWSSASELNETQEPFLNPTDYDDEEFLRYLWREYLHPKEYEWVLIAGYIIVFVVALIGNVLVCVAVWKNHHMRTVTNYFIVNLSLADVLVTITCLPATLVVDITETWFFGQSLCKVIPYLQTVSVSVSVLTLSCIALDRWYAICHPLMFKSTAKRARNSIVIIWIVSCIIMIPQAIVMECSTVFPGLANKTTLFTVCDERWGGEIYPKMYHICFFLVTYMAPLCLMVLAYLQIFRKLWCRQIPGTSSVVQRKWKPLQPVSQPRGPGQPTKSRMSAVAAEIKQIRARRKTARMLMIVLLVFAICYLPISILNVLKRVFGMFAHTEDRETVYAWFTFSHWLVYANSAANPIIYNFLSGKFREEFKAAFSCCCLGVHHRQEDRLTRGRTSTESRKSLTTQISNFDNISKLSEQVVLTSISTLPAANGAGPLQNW
TEST DESCRIPTION: Assay B: OX2R IP1 (in vitro OX2R potency)
Assay type: cell-based
CONDITIONS: 0.5 nM Orexin A concentration
The reply should be a number in nM, with the unit left off.

Q. Look up Kb: CCN(C(=O)c1cccc(F)c1-n1nccn1)[C@@H](C)CNc1ncc(C(F)(F)F)cn1
A. 18

Q. Same again, this time with CCN(C(=O)c1cc(F)cc(F)c1-n1nccn1)[C@@H](C)CNc1ncc(C(F)(F)F)cn1
A. 53.1

Q. Also, CCN(C(=O)c1cnc(C)nc1-c1ccccc1)[C@@H](C)CNc1ncc(C(F)(F)F)cn1 please.
A. 54

Q. Same thing, different molecule: CCN(C(=O)c1cccc(Cl)c1-n1nccn1)[C@@H](C)CNc1ncc(C(F)(F)F)cn1
A. 6.27

Q. CCN(C(=O)c1nc(C)ccc1-n1nccn1)[C@@H](C)CNc1ncc(C(F)(F)F)cn1 , same question.
A. 32.9

Q. CCN(C(=O)c1ccccc1-n1nccn1)[C@@H](C)CNc1ncc(C(F)(F)F)cn1 ?
A. 19.4

----------
TARGET: human Orexin 1 receptor (Homo sapiens, UniProt O43613)
Construct: stably expressing the full-length human Orexin 1 receptor and the aequorin photoprotein; expressed in transfected cells; host or cells: CHO-K1 (CHO-K1/hOx1), co-expressing aequorin
Sequence (O43613 whole entry): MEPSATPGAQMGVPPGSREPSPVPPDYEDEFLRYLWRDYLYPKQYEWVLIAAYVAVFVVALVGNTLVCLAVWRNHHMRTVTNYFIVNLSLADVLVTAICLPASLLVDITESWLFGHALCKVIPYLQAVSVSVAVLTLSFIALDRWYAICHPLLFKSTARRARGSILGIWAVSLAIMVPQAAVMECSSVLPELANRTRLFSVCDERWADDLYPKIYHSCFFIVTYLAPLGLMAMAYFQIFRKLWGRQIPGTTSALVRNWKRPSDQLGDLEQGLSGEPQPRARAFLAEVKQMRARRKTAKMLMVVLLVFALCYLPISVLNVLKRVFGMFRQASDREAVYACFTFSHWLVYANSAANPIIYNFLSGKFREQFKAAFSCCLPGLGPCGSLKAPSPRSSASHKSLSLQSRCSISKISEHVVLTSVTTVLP
TEST DESCRIPTION: Assay A: OX1R IP1 (in vitro OX1R potency)
Format: cell-based
CONDITIONS: 50 nM Orexin A concentration
QUANTITY KIND: Kb

Reference set, count: 3
- SMILES ENTRY: "CCN(C(=O)c1ccccc1-n1nccn1)[C@@H](C)CNc1ncc(C(F)(F)F)cn1"
  REPORTED MEASUREMENT: "0.048 nM"
- SMILES ENTRY: "CCN(C(=O)c1cccc(F)c1-n1nccn1)[C@@H](C)CNc1ncc(C(F)(F)F)cn1"
  REPORTED MEASUREMENT: "0.0512 nM"
- SMILES ENTRY: "CCN(C(=O)c1cnc(C)nc1-c1ccccc1)[C@@H](C)CNc1ncc(C(F)(F)F)cn1"
  REPORTED MEASUREMENT: "0.0216 nM"

Next molecule, Kb to be filled in.
Q. Fill in: Kb of CCN(C(=O)c1nc(C)ccc1-n1nccn1)[C@@H](C)CNc1ncc(C(F)(F)F)cn1 is ___
A. 0.106 nM

----------
# efflux ratio per record follows
Test system: human MDR1 P-gp
TEST DESCRIPTION: Assay D: efflux in MDCK cells transfected with the human MDR1 gene
Format: in vitro ADME, canine
CONDITIONS: dog; MDCK-MDR1 monolayers, pH 7.4, 37° C.; read-out: MDCK efflux ratio (BA/AB)

- SMILES ENTRY: "CCN(C(=O)c1cc(F)cnc1-n1nccn1)[C@@H](C)CNc1ncc(C(F)(F)F)cn1"
  efflux ratio: "< 3"
- SMILES ENTRY: "CCN(C(=O)c1cc(F)ccc1-c1ncccn1)[C@@H](C)CNc1ncc(C(F)(F)F)cn1"
  efflux ratio: "< 3"
- SMILES ENTRY: "CCN(C(=O)c1cccc(F)c1-n1nccn1)[C@@H](C)CNc1cnc(C(F)(F)F)cn1"
  efflux ratio: "3 to 5"

Now look at this entry.
Q. Look at this molecule and give its reported efflux ratio. CC[C@@H](CNc1ncc(C(F)(F)F)cn1)N(C)C(=O)c1nc(C)ccc1-n1nccn1
A. < 3

----------
Recorded efflux ratio by entry
System: human MDR1 P-gp
TEST DESCRIPTION: Assay D: efflux in MDCK cells transfected with the human MDR1 gene
Assay type: in vitro ADME, canine
CONDITIONS: dog; MDCK-MDR1 monolayers, pH 7.4, 37° C.; read-out: MDCK efflux ratio (BA/AB)

Here's what some known entries look like.
- COMPOUND: "CCN(C(=O)c1cccc(F)c1-c1ncccn1)[C@@H](C)CNc1ncc(C(F)(F)F)cn1 [Example 11]"
  REPORTED MEASUREMENT: "3 to 5"
- COMPOUND: "CCN(C(=O)c1cncnc1-c1ccccc1)[C@@H](C)CNc1ncc(C(F)(F)F)cn1 [Example 20]"
  REPORTED MEASUREMENT: "< 3"
- COMPOUND: "CC[C@@H](CNc1ncc(C(F)(F)F)cn1)N(C)C(=O)c1c(F)cccc1-n1nccn1 [Ex 91 in WO2016/034882]"
  REPORTED MEASUREMENT: "< 3"
- COMPOUND: "CCN(C(=O)c1ccccc1-c1noc(C)n1)[C@@H](C)CNc1ncc(C(F)(F)F)cn1 [Example 14]"
  REPORTED MEASUREMENT: "< 3"
- COMPOUND: "CCN(C(=O)c1cc(C#N)ccc1-n1nccn1)[C@@H](C)CNc1ncc(C(F)(F)F)cn1 [Example 8]"
  REPORTED MEASUREMENT: "3 to 5"
- COMPOUND: "CCN(C(=O)c1cnc(C)nc1-c1ccccc1)[C@@H](C)CNc1ncc(C(F)(F)F)cn1 [Example 17]"
  REPORTED MEASUREMENT: "< 3"

Q. Lab note: need efflux ratio for CCN(C(=O)c1cccc(F)c1-n1nccn1)[C@@H](C)CNc1ncc(C(F)(F)F)cn1 [Example 18] on human MDR1 P-gp, anyone have it?
A. < 3

Q. What do you get for CCN(C(=O)c1nccnc1-c1ccccc1)[C@@H](C)CNc1ncc(C(F)(F)F)cn1 [Example 21] ?
A. < 3

Q. Next: CCN(C(=O)c1ccc(F)cc1-c1nnc(C)o1)[C@@H](C)CNc1cnc(C(F)(F)F)cn1 [Example 23]
A. 3 to 5

Q. Consider next the compound CCN(C(=O)c1ccc(F)c(F)c1-n1nccn1)[C@@H](C)CNc1ncc(C(F)(F)F)cn1 [Example 4] in the same way.
A. < 3
